Tested on: mu opiate receptor (MOR)
Assay Summary: MOR agonist activity using [35S]GTPγS binding assay in striatal membranes
Assay type: biochemical
Test Parameters: Series C-2; 1 μM compound + β-FNA, relative to DAMGO + BFNA
This listing pairs compounds with measured % DAMGO + BFNA.
State the result as a value with its unit after it.

Q) Consider the compound CC(=O)c1ccc(S(=O)(=O)N2C(Cc3c[nH]cn3)C(=O)NC23CCNCC3)cc1 (stereo not shown) [Compound C0119M] and give its recorded % DAMGO + BFNA.
A) 89.3%

Further cases:
Q) Consider the compound O=[N+]([O-])c1ccc(S(=O)(=O)N2CCC3(CC2)NCCO3)cc1 [Compound C0040] and give its recorded % DAMGO + BFNA.
A) 277.3%

Q) Consider the compound C[C@@H](NC(=O)[C@@H](N)Cc1ccc(O)cc1)C(=O)NCC(=O)N(C)[C@@H](Cc1ccccc1)C(=O)NCCO [DAMGO, [D-Ala2, N-MePhe4, Gly-ol]-enkephalin, reference compound] and give its recorded % DAMGO + BFNA.
A) 100%
